Recorded EC50 for the following compounds
- test.system: Histamine H2 receptor (Homo sapiens, UniProt P25021)
- Sequence (P25021 whole entry, the tested form may be a part): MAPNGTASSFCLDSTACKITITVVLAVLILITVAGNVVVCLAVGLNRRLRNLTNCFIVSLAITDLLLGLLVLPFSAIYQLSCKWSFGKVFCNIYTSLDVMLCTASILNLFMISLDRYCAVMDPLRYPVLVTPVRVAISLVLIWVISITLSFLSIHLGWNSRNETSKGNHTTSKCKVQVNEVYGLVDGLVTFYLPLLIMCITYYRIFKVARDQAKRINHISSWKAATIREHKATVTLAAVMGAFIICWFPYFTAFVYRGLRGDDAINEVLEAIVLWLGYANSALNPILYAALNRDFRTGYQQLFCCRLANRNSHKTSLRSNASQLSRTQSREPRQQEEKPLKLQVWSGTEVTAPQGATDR
- experimental.details: Agonist activity at human recombinant histamine H2 receptor-Gsalphas fusion protein expressed in Sf9 cells preincubated for 2 mins before [gamma32P]GTP addition measured after 20 mins by steady-state GTPase activity assay

| compound | test.system | readout.value |
| --- | --- | --- |
| CC(CC(=O)/N=C(\N)NCCCc1ccccn1)c1ccccc1 (centres undefined) | Histamine H2 receptor (Homo sapiens, UniProt P25021) | 832 nM |
| CC(CC(=O)/N=C(\N)NCCCc1ncn[nH]1)c1ccccc1 (centres undefined) | Histamine H2 receptor (Homo sapiens, UniProt P25021) | 741 nM |
| CC(CC(=O)/N=C(\N)NCCCc1cn[nH]c1)c1ccccc1 (centres undefined) | Histamine H2 receptor (Homo sapiens, UniProt P25021) | 240 nM |

Next compound, EC50 to be filled in.
Q) For the compound "N/C(=N\C(=O)CC(c1ccccc1)c1ccccc1)NCCCc1ncn[nH]1" , give its reported EC50.
A) 407 nM

###

- test.system: Histamine H4 receptor (Homo sapiens)
- Sequence (Q9H3N8 whole entry, the tested form may be a part): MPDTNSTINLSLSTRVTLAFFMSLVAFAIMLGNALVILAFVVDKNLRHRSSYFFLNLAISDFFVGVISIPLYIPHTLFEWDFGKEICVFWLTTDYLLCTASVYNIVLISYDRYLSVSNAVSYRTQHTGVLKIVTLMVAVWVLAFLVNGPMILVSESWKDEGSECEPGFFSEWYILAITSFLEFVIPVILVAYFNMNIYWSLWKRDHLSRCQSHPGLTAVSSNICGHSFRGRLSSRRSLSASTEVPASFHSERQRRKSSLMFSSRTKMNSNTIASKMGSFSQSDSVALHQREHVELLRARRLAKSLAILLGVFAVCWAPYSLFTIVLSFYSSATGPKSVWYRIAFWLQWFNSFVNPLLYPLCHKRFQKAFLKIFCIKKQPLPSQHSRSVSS
- experimental.details: Agonist activity at human recombinant histamine H4 receptor-RGS19 fusion protein expressed in Sf9 cells coexpressing Galphai2,Gbeta1gamma2 assessed as [35S]GTPgammaS binding after 90 mins by liquid scintillation counting
- Assay type: functional
hey, just use yes (1) if measured EC50 is less than 500 nM, otherwise no (0)

Known results for compounds:
| sample.smiles | group |
| --- | --- |
| Cc1[nH]cnc1CCCCN/C(=N\C#N)NCCSc1ccccc1 | yes (1) |
| N#C/N=C(/NCCCCc1c[nH]cn1)NCCSc1ccccc1 | yes (1) |
| CN/C(=N/C#N)NCCCc1c[nH]c(C)n1 | no (0) |
| Cc1nc(CCCN/C(=N\C#N)NCCSc2ccccc2)c[nH]1 | yes (1) |

In the following, a different compound is considered.
Q) Input "CN/C(=N/C#N)NCCCCc1nc[nH]c1C" ; condition: EC50 strictly below 500 nM. Does it hold?
A) no (0)

###

- test.system: Histamine H4 receptor (Homo sapiens)
- experimental.details: Antagonist activity at human recombinant histamine H4 receptor-RGS19 fusion protein expressed in Sf9 cells coexpressing Galphai2,Gbeta1gamma2 assessed as inhibition of histamine-induced [35S]GTPgammaS binding after 90 mins by liquid scintillation counting
- Assay type: functional
Recorded pKb for the following compounds

| sample.smiles | test.readout | readout.value |
| --- | --- | --- |
| CN/C(=N\C#N)NCCCCNc1ccccn1 | pKb | < 5 |

Q) For the compound "N#C/N=C(\NCCNc1ccnc(N)n1)NCCSc1ccccc1" , give its reported pKb.
A) 5.43

Q) For the compound "N#C/N=C(/NCCCNc1nccc(N)n1)NCCSc1ccccc1" , give its reported pKb.
A) < 5

Q) For the compound "CN/C(=N\CCSCc1nc[nH]c1C)NC#N" , give its reported pKb.
A) < 5

Q) For the compound "CN/C(=N\C#N)NCCNc1nccc(N)n1" , give its reported pKb.
A) < 5

Q) For the compound "CN/C(=N\C#N)NCCCNc1ccccn1" , give its reported pKb.
A) < 5

Q) For the compound "CN/C(=N/C#N)NCCCCc1c[nH]c(C)n1" , give its reported pKb.
A) < 5

Q) For the compound "N#C/N=C(/NCCCNc1ccccn1)NCCSc1ccccc1" , give its reported pKb.
A) < 5

###

- test.system: Histamine H1 receptor (Cavia porcellus)
- Sequence (P31389 whole entry): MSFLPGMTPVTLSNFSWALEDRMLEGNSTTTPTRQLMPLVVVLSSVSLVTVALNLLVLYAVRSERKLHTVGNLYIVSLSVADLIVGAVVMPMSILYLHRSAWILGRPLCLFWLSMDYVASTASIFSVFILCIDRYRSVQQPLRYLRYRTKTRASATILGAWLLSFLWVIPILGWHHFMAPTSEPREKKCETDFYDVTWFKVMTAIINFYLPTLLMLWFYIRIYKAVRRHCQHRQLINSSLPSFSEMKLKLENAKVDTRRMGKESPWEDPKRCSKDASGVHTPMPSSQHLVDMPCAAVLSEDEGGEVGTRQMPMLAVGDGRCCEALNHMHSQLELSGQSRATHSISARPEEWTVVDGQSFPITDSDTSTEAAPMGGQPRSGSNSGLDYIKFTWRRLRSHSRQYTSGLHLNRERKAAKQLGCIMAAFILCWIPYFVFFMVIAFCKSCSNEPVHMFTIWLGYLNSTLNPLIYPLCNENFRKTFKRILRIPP
- experimental.details: Antagonist activity at guinea pig ileum histamine H1 receptor assessed as inhibition of histamine-induced response after 10 to 15 mins
- Assay type: tissue-based
- conditions.used: read-out: pA2 (converted)
Cut-off 2 µM on Kb, inclusive. At or above means 1; below means -1.

Known results for compounds:
| compound | test.system | group |
| --- | --- | --- |
| CC(CC(=O)/N=C(\N)NCCCc1cn[nH]c1)c1ccccc1 (configuration not stated) | Histamine H1 receptor (Cavia porcellus) | 1 |
| CC(CC(=O)/N=C(\N)NCCCc1ccc(CN(C)C)o1)c1ccccc1 (configuration not stated) | Histamine H1 receptor (Cavia porcellus) | 1 |
| N/C(=N\C(=O)CC(c1ccccc1)c1ccccc1)NCCCc1cn[nH]c1 | Histamine H1 receptor (Cavia porcellus) | 1 |
| N/C(=N\C(=O)CC(c1ccccc1)c1ccccc1)NCCCc1ncn[nH]1 | Histamine H1 receptor (Cavia porcellus) | -1 |
| CC(CC(=O)/N=C(\N)NCCCn1ccnc1)c1ccccc1 (configuration not stated) | Histamine H1 receptor (Cavia porcellus) | -1 |

Q) Textbook exercise: given the entry "N/C(=N\C(=O)CC(c1ccccc1)c1ccccc1)NCCCn1ccnc1" , state whether its Kb is greater than or equal to 2 µM.
A) 1

Q) Textbook exercise: given the entry CC(CC(=O)/N=C(\N)NCCCc1ncn[nH]1)c1ccccc1 (configuration not stated) , state whether its Kb is greater than or equal to 2 µM.
A) -1

###

- test.system: Histamine H4 receptor (Homo sapiens)
- experimental.details: Agonist activity at human recombinant histamine H4 receptor-RGS19 fusion protein expressed in Sf9 cells coexpressing Galphai2,Gbeta1gamma2 assessed as [35S]GTPgammaS binding after 90 mins by liquid scintillation counting
- Assay type: functional
Active and inactive are the calls of the source. The calls are words filed in the database; no cut-off is given here.
test.readout: pEC50

Some compounds with known pEC50 results, for comparison:
| sample.smiles | readout.value |
| --- | --- |
| N#C/N=C(\NCCCCc1nc(N)n[nH]1)NCCSc1ccccc1 | inactive |
| N#C/N=C(\NCCCCc1cnn[nH]1)NCCSc1ccccc1 | inactive |
| CN/C(=N\C#N)NCCCSc1nc(N)n[nH]1 | inactive |
| N#C/N=C(/NCCCSc1nc(N)n[nH]1)NCCSc1ccccc1 | inactive |
| CN/C(=N/C#N)NCCCNc1nc(N)n[nH]1 | inactive |

Next compound, pEC50 to be filled in.
Q) Recall the reported pEC50 of "CN/C(=N\C#N)NCCCCNc1nc(N)n[nH]1" on Histamine H4 receptor (Homo sapiens) and write it down.
A) inactive

###

Recorded Intrinsic activity for the following molecules
- test.system: Histamine H3 receptor (Homo sapiens, UniProt Q9Y5N1)
- Sequence (Q9Y5N1 whole entry): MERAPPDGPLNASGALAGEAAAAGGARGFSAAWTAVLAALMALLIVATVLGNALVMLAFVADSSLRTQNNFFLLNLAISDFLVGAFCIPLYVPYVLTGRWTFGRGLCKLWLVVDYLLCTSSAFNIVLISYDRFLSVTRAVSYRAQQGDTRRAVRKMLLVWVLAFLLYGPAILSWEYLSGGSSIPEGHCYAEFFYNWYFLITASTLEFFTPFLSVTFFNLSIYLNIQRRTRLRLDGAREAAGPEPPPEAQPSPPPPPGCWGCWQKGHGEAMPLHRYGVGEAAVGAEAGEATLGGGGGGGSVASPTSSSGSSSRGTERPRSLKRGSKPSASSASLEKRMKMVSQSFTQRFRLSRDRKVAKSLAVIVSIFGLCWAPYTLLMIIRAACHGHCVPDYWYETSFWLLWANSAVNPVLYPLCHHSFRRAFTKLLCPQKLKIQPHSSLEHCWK
- experimental.details: Intrinsic activity at human recombinant histamine H3 receptor expressed in Sf9 cells coexpressing Galphai2,Gbeta1gamma2 and RGS4 assessed as [35S]GTPgammaS binding at 10 uM after 90 mins by liquid scintillation counting relative to histamine
- Type: functional
// response body must contain only the number

Q) For the molecule "N#C/N=C(/NCCCCc1c[nH]cn1)NCCSc1ccccc1" , give its reported Intrinsic activity.
A) -0.52

Q) For the molecule "N#C/N=C(\NCCNc1ccnc(N)n1)NCCSc1ccccc1" , give its reported Intrinsic activity.
A) -1.03

Q) For the molecule "N#C/N=C(/NCCNc1nccc(N)n1)NCCSc1ccccc1" , give its reported Intrinsic activity.
A) -1.43

Q) For the molecule "Cc1nc(CCCN/C(=N\C#N)NCCSc2ccccc2)c[nH]1" , give its reported Intrinsic activity.
A) -1.11

Q) For the molecule "Cc1[nH]cnc1CCCCN/C(=N\C#N)NCCSc1ccccc1" , give its reported Intrinsic activity.
A) -0.65

###

Recorded Intrinsic activity for the following compounds
- test.system: UniProtKB P25021
- experimental.details: Intrinsic activity at human recombinant histamine H2 receptor-Gsalphas fusion protein expressed in Sf9 cells preincubated for 2 mins before [gamma32P]GTP addition measured after 20 mins by steady-state GTPase activity assay relative to histamine
// response body must contain only the number

Q) For the compound CC(CC(=O)/N=C(\N)NCCCc1ncc[nH]1)c1ccccc1 (stereo unspecified) , give its reported Intrinsic activity.
A) 0.03

Q) For the compound CC(CC(=O)/N=C(\N)NCCCc1cn[nH]c1)c1ccccc1 (stereo unspecified) , give its reported Intrinsic activity.
A) 0.44

Q) For the compound "N/C(=N\C(=O)CC(c1ccccc1)c1ccccc1)NCCCc1ccccn1" , give its reported Intrinsic activity.
A) 0

Q) For the compound CC(CC(=O)/N=C(\N)NCCCc1ccccc1)c1ccccc1 (stereo unspecified) , give its reported Intrinsic activity.
A) -0.1

Q) For the compound "N/C(=N\C(=O)CC(c1ccccc1)c1ccccc1)NCCCc1ccncc1" , give its reported Intrinsic activity.
A) -0.12

Q) For the compound CN(C)Cc1ccc(CCCN/C(N)=N/C(=O)CC(c2ccccc2)c2nccs2)o1 (stereo unspecified) , give its reported Intrinsic activity.
A) -0.13

Q) For the compound N/C(=N\C(=O)CC(c1ccccc1)c1nccs1)NCCCc1ncc[nH]1 (stereo unspecified) , give its reported Intrinsic activity.
A) 0

Q) For the compound CC(CC(=O)/N=C(\N)NCCCc1ncn[nH]1)c1ccccc1 (stereo unspecified) , give its reported Intrinsic activity.
A) 0.66

Q) For the compound "N/C(=N\C(=O)CC(c1ccccc1)c1ccccc1)NCCCn1ccnc1" , give its reported Intrinsic activity.
A) -0.07

Q) For the compound "N/C(=N\C(=O)CC(c1ccccc1)c1ccccc1)NCCCc1cccnc1" , give its reported Intrinsic activity.
A) -0.16

Q) For the compound "CN(C)Cc1ccc(CCCN/C(N)=N/C(=O)CC(c2ccccc2)c2ccccc2)o1" , give its reported Intrinsic activity.
A) -0.16

Q) For the compound CC(CC(=O)/N=C(\N)NCCCc1ccncc1)c1ccccc1 (stereo unspecified) , give its reported Intrinsic activity.
A) 0

Q) For the compound "N/C(=N\C(=O)CC(c1ccccc1)c1ccccc1)NCCCc1ccccc1" , give its reported Intrinsic activity.
A) -0.12

Q) For the compound "N/C(=N\C(=O)CC(c1ccccc1)c1ccccc1)NCCCc1cn[nH]c1" , give its reported Intrinsic activity.
A) 0.08

Q) For the compound CC(CC(=O)/N=C(\N)NCCCc1ccc(CN(C)C)o1)c1cccs1 (stereo unspecified) , give its reported Intrinsic activity.
A) -0.12

Q) For the compound "N/C(=N\C(=O)CC(c1ccccc1)c1ccccc1)NCCCc1ncn[nH]1" , give its reported Intrinsic activity.
A) 0.42
